Field: koff. Provide a value for each of the binders that follow.
biological target: T1, AFP158/HLA-A*02:01 complex (human); assay: SPR, crude scFv captured, pMHC analyte;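 further: complex injected at several concentrations over the chip, association phase then running buffer for dissociation, KD derived from on- and off-rates computed from both curves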
T1 construct: flowed as analyte in SPR
# output: bare number, implied unit s⁻¹

In: Recorded koff of AS170036 VL1VH1-57K98F108A (scFv, also called 67-AS170036 VL1VH1-57K98F108A) scFv: QSALTQPRSVSGSPGQSVTISCAGTSSDVGSENYVSWYQQHPGKAPKLMIYQVNKRASGVPDRFSGSKSGNTASLTISGLQAEDEADYYCASYRSSDFNIVFGGGTKLTVLGGGGSGGGGSGGGGSEVQLVESGGGLVQPGGSLRLSCAASGFTFSSYAMSWVRQAPGKGLEWVSTINSGTGKPYYADSVKGRFTISRDNSKNTLYLQMNSLRAEDTAVYYCAKNFFDGSWFLAPPAMDYWGQGTLVTVSSHHHHHH , please.
Out: 0.00079

In: May I ask what koff has been recorded for AS170036 VL1VH1-56N98Q108D (scFv, also called 56-AS170036 VL1VH1-56N98Q108D) scFv: QSALTQPRSVSGSPGQSVTISCAGTSSDVGSENYVSWYQQHPGKAPKLMIYQVNKRASGVPDRFSGSKSGNTASLTISGLQAEDEADYYCASYRSSDQNIVFGGGTKLTVLGGGGSGGGGSGGGGSEVQLVESGGGLVQPGGSLRLSCAASGFTFSSYAMSWVRQAPGKGLEWVSTINSGTNSPYYADSVKGRFTISRDNSKNTLYLQMNSLRAEDTAVYYCAKNFFDGSWFLDPPAMDYWGQGTLVTVSSHHHHHH ?
Out: 0.0015

In: Give the measured koff of AS170036 VL1VH1-57K98F108S (scFv, also called 69-AS170036 VL1VH1-57K98F108S) scFv: QSALTQPRSVSGSPGQSVTISCAGTSSDVGSENYVSWYQQHPGKAPKLMIYQVNKRASGVPDRFSGSKSGNTASLTISGLQAEDEADYYCASYRSSDFNIVFGGGTKLTVLGGGGSGGGGSGGGGSEVQLVESGGGLVQPGGSLRLSCAASGFTFSSYAMSWVRQAPGKGLEWVSTINSGTGKPYYADSVKGRFTISRDNSKNTLYLQMNSLRAEDTAVYYCAKNFFDGSWFLSPPAMDYWGQGTLVTVSSHHHHHH .
Out: 0.0014

In: Report koff for AS170036 VL1VH1-56N98F108A (scFv, also called 49-AS170036 VL1VH1-56N98F108A) scFv: QSALTQPRSVSGSPGQSVTISCAGTSSDVGSENYVSWYQQHPGKAPKLMIYQVNKRASGVPDRFSGSKSGNTASLTISGLQAEDEADYYCASYRSSDFNIVFGGGTKLTVLGGGGSGGGGSGGGGSEVQLVESGGGLVQPGGSLRLSCAASGFTFSSYAMSWVRQAPGKGLEWVSTINSGTNSPYYADSVKGRFTISRDNSKNTLYLQMNSLRAEDTAVYYCAKNFFDGSWFLAPPAMDYWGQGTLVTVSSHHHHHH please.
Out: 0.0015

In: What value of koff has been reported for the following binder? AS170036 VL1VH1-56Y98I108A (scFv, also called 43-AS170036 VL1VH1-56Y98I108A) scFv: QSALTQPRSVSGSPGQSVTISCAGTSSDVGSENYVSWYQQHPGKAPKLMIYQVNKRASGVPDRFSGSKSGNTASLTISGLQAEDEADYYCASYRSSDINIVFGGGTKLTVLGGGGSGGGGSGGGGSEVQLVESGGGLVQPGGSLRLSCAASGFTFSSYAMSWVRQAPGKGLEWVSTINSGTYSPYYADSVKGRFTISRDNSKNTLYLQMNSLRAEDTAVYYCAKNFFDGSWFLAPPAMDYWGQGTLVTVSSHHHHHH
Out: 0.00025
